Source: ChEMBL document CHEMBL1201862

So I've got a bunch of compounds here, and I need their GI50 values.
System: OVCAR-4
runDescription: NCI tumour cell line growth inhibition, 48 h
Calls of active or inactive are those of the source. No stated cut-off is given here; in the data, active = GI50 up to about 1.1 µM and inactive = higher.

What does the record list as GI50 for CC(=O)OC1C/C(C)=C/[C@H](O)CC(C)/C=C/[C@@]2(C)CCC(C(C)(C)O)C12 (some centres not stated) ?
> 100 µM (inactive)

What does the record list as GI50 for O=C1c2cccc(O)c2C(=O)c2cccc(O)c21 ?
> 100 µM (inactive)

What does the record list as GI50 for Cc1ccc(S(=O)(=O)C2=C([Si](C)(C)C)C3CC2[C@@H]2C4C=CC(CC4)[C@H]32)cc1 (some centres not stated) ?
> 100 µM (inactive)

What does the record list as GI50 for OC[C@H]1CC(c2nn[nH]n2)[C@H](O)[C@@H]1O (some centres not stated) ?
> 100 µM (inactive)

What does the record list as GI50 for COC(=O)[C@H](Cc1ccccc1)NC(=O)NCCN(CCNC(=O)N[C@@H](Cc1ccccc1)C(=O)OC)C(=O)N[C@@H](Cc1ccccc1)C(=O)OC ?
15.2 µM (inactive)

What does the record list as GI50 for CC1(C)[C@@H]2CC[C@@]1(C)[C@@H]1O[C@@H](O[C@@H](CN)c3cc(Cl)c(OCc4ccccc4)c(OCc4ccccc4)c3)C[C@H]21 ?
0.162 µM (active)

What does the record list as GI50 for COc1cc(C2(O)c3ccccc3C3=NCCN32)cc(OC)c1OC (configuration not stated) ?
> 100 µM (inactive)

What does the record list as GI50 for CC1CC[C@@]2(OC1)OC1C[C@H]3[C@@H]4CC=C5CC(OC6OC(CO)C(OC7OC(CO)C(O)C(OC8OCC(O)C(O)C8O)C7OC7OC(CO)C(OC8OC(C)C(OC9OC(C)C(O)C(O)C9O)C(O)C8O)C(O)C7O)C(O)C6O)CCC5(C)[C@H]4CCC3(C)C1[C@@H]2C (some centres not stated) ?
4.21 µM (inactive)

What does the record list as GI50 for CC1(C)CCCC(C)(C2CCC3(C)C2C(O)CC2C4(C)CCC(O)C(C)(C)C4CCC23C)O1 (configuration not stated) ?
66.2 µM (inactive)

What does the record list as GI50 for COC(=O)/C(C#N)=C1\CCc2ccccc21 ?
> 100 µM (inactive)

What does the record list as GI50 for CC(=O)O[C@@H]1[C@@H](O)C2=C3[C@]4(C)[C@@H]1C(C)(C)C(=O)C[C@@H]4[C@]3(O)[C@H](OC(C)=O)[C@@]1(C[C@@H]1C)C2=O ?
19.5 µM (inactive)

What does the record list as GI50 for CCO/C([O-])=C(\C(=O)c1ccccc1)[n+]1c(C)sc2ccccc21 ?
96.6 µM (inactive)

What does the record list as GI50 for CN(C)CC1CCC/C(=C\c2ccc(OC(=O)/C=C/c3ccc(Cl)cc3)cc2)C1=O (configuration not stated) ?
12.5 µM (inactive)

What does the record list as GI50 for Cc1ccc2c(=O)c(-c3nnsn3)c[nH]c2n1 ?
> 100 µM (inactive)

What does the record list as GI50 for COc1cc(Oc2nc3cc(F)c(F)cc3nc2-c2ccccc2)cc(OC)c1OC ?
79.3 µM (inactive)

What does the record list as GI50 for CCc1nc2c(O)ccc(O)c2nc1C ?
6.75 µM (inactive)

What does the record list as GI50 for CN(C)CCN1C(=O)CC[C@@]2(C)C1=CC[C@@H]1[C@@H]2CC[C@@]2(C)[C@H]1CC[C@]2(C)O ?
> 100 µM (inactive)

What does the record list as GI50 for N#COc1ccc(Oc2ccc(OC#N)cc2)cc1 ?
> 100 µM (inactive)

What does the record list as GI50 for N#CCN(CC#N)C1CC=CCC1N(CC#N)CC#N (configuration not stated) ?
> 100 µM (inactive)

What does the record list as GI50 for OC12CCC3(O)c4ccccc4C3C1c1ccccc12 (configuration not stated) ?
> 100 µM (inactive)

What does the record list as GI50 for c1ccc2cc(NCNc3ccc4ccccc4c3)ccc2c1 ?
12.5 µM (inactive)

What does the record list as GI50 for Cc1ccc(S(=O)(=O)NCCCSCCSCCCN)cc1 ?
> 100 µM (inactive)

What does the record list as GI50 for Cc1ccc(OCC2OC(n3cnc4nc(Cl)nc(Cl)c43)CC2Oc2ccc(C)cc2)cc1 (configuration not stated) ?
15.7 µM (inactive)

What does the record list as GI50 for CCOC(=O)CN.CCOC(=O)Nc1ccc(S(=O)(=O)OC)cc1.CCOC(=O)Nc1ccc(S(=O)(=O)OC)cc1 ?
> 50 µM (inactive)

What does the record list as GI50 for CCCCc1ccc(Nc2nc3c(ncn3C3OC(COC(C)=O)C(OC(C)=O)C3OC(C)=O)c(=O)[nH]2)cc1 (configuration not stated) ?
21.9 µM (inactive)

What does the record list as GI50 for Cc1ccc(S(=O)(=O)c2scc(-c3ccccc3)c2C)cc1 ?
> 100 µM (inactive)

What does the record list as GI50 for CCOC(=O)Cc1nc2cc(F)c(F)cc2[nH]c1=O ?
> 100 µM (inactive)

What does the record list as GI50 for CCc1nc(N)nc(N)c1-c1ccc(N(C)Cc2ccccc2)c([N+](=O)[O-])c1 ?
5.15 µM (inactive)

What does the record list as GI50 for Nc1nc(-c2cccc([N+](=O)[O-])c2)cc(-c2cc(-c3cccc([N+](=O)[O-])c3)nc(N)n2)n1 ?
> 100 µM (inactive)

What does the record list as GI50 for COCn1cnc2c(=O)n(-c3ccc(OC)cc3)c(=S)n(-c3ccc(OC)cc3)c21 ?
89.3 µM (inactive)

What does the record list as GI50 for C=C1C(=O)OC2CC1C(O)C/C(C)=C/CC/C(C)=C/C(O)CC2C (configuration not stated) ?
2.45 µM (inactive)

What does the record list as GI50 for CC(C)(Br)C(=O)C(Br)Br ?
5.09 µM (inactive)

What does the record list as GI50 for COc1cc(/C=C2\CC(C)C/C(=C\c3ccc(O)c(OC)c3)C2=O)ccc1O (configuration not stated) ?
2.52 µM (inactive)

What does the record list as GI50 for N/N=c1\[nH]c2ccccc2o1 ?
46.5 µM (inactive)

What does the record list as GI50 for C/C1=C\[C@H](C)C[C@H](C)OC(=O)C[C@H](c2ccc(O)cc2)NC(=O)[C@H](Cc2ccc(O)c(Br)c2)N(C)C(=O)[C@H](C)NC(=O)[C@@H](C)C1 ?
> 25 µM (inactive)

What does the record list as GI50 for CN(c1ccccc1)c1nc(=[N+]2CCCC2)ss1.[O-][Cl+3]([O-])([O-])[O-] ?
> 100 µM (inactive)

What does the record list as GI50 for CC1CN=C(N(Cc2ccc(F)cc2)C(=O)Nc2ccc(Cl)cc2)S1 (configuration not stated) ?
13.3 µM (inactive)

----------
Tested on: A549
runDescription: NCI tumour cell line growth inhibition, 48 h
Calls of active or inactive are those of the source. Rule as the data show it: active = GI50 up to about 1.1 µM and inactive = higher.
measure: GI50

Form entry - test system: A549; read-out: GI50; compound: COC(=O)C1(c2ccc(OC)cc2)NC(c2ccccc2)C2C(=O)N(c3ccc(OC)cc3)C(=O)C21 (stereo not given)
> 100 µM (inactive)

Form entry - test system: A549; read-out: GI50; compound: Cc1ccc2c(c1)CC1(C2=O)[C@H](c2ccccc2)C2C(=O)c3ccc(C)cc3C2[C@H]1c1ccccc1 (stereo not given in full)
> 100 µM (inactive)

Form entry - test system: A549; read-out: GI50; compound: CCCCCCCCCCCCCCCCSS(C)(=O)=O
> 65.3 µM (inactive)

Form entry - test system: A549; read-out: GI50; compound: COc1cc(/C=C2\CC(C)C/C(=C\c3ccc(O)c(OC)c3)C2=O)ccc1O (stereo not given)
3.64 µM (inactive)

Form entry - test system: A549; read-out: GI50; compound: Cc1cccc(C)c1/N=N/c1ccc(O)c(CN(C)C)c1
65.9 µM (inactive)

Form entry - test system: A549; read-out: GI50; compound: COc1ccc(-c2nc(Sc3c([N+](=O)[O-])ncn3C)n[nH]2)cc1
12.4 µM (inactive)

Form entry - test system: A549; read-out: GI50; compound: CC(=O)NCC1OC2COC(c3ccccc3)OC2C(NC(=O)c2ccccc2)C1OC(=O)c1ccccc1 (stereo not given)
> 100 µM (inactive)

Form entry - test system: A549; read-out: GI50; compound: CC(C)NC(=O)OCc1c2c(n(C)c1COC(=O)NC(C)C)-c1ccccc1CC2
23.7 µM (inactive)

Form entry - test system: A549; read-out: GI50; compound: COc1ccc(N2CN(C)CSC2=S)cc1
> 100 µM (inactive)

Form entry - test system: A549; read-out: GI50; compound: COC(=O)/C=C(\S/C=C(/c1ccccc1)N1CCn2c(C(=O)c3ccccc3)c(C(=O)OC)c(C(=O)OC)c21)C(=O)OC
> 10 µM (inactive)

Form entry - test system: A549; read-out: GI50; compound: COc1ccc2c(c1)NC1(CCN(CCCC(=O)c3ccc(F)cc3)CC1)N=N2
36.4 µM (inactive)

Form entry - test system: A549; read-out: GI50; compound: Nc1ccc(-c2cc(C(=O)Nc3nccs3)nc(S)n2)cc1
> 100 µM (inactive)

Form entry - test system: A549; read-out: GI50; compound: CCN(CC)CCSc1c(C(C)=O)c(=O)n(-c2ccccc2)c(=S)n1-c1ccccc1
13.8 µM (inactive)

Form entry - test system: A549; read-out: GI50; compound: Cc1c2cc[n+](C)cc2c(C)c2c1[nH]c1ccccc12
0.225 µM (active)

Form entry - test system: A549; read-out: GI50; compound: N#CCN(CC#N)C1CC=CCC1N(CC#N)CC#N (stereo not given)
> 100 µM (inactive)

Form entry - test system: A549; read-out: GI50; compound: O=C1C2=C(CC3=C(C2)CS(=O)(=O)C3)C(=O)C2=C1CC1=C(C2)CS(=O)(=O)C1
> 90.2 µM (inactive)

Form entry - test system: A549; read-out: GI50; compound: Cc1ccc(C2(O)CC(c3ccc([N+](=O)[O-])o3)=NN2C(=O)COc2ccccc2Cl)cc1 (stereo not given)
18.1 µM (inactive)

Form entry - test system: A549; read-out: GI50; compound: CCOC(=O)C1OC(C2(C)OC3(OC4(C=CC3O)OC(C(C)C(=O)C(C)C(O)C(C)CC(C)c3c(Cl)cc(C)c(O)c3C(=O)O)C(C)CC4C)C(C)C2OC)CC1O (stereo not given)
0.406 µM (active)

Form entry - test system: A549; read-out: GI50; compound: CC(=O)OC1C/C(C)=C/[C@H](O)CC(C)/C=C/[C@@]2(C)CCC(C(C)(C)O)C12 (stereo not given in full)
> 100 µM (inactive)

Form entry - test system: A549; read-out: GI50; compound: COc1ccc(-n2c(N)c(C#N)c(C#N)c2-c2ccccc2)cc1
> 100 µM (inactive)
